The reported numbers originate from ChEMBL document CHEMBL6083284.

experiment: Drug concentration in synovial fluid of Sprague-Dawley rat at 250 ug, IART measured for 168 hrs by LC-MS/MS analysis; assay type: ADME, tissue-based; conditions: Sprague-Dawley, synovial fluid, 250 ug, read-out: Ct
REPORTED ENDPOINT: concentration at 168 h (nM)

Observe how each entry below is paired with its result.
NC(=O)c1cccc(-c2cc(-c3cccnc3O[C@H]3CC[C@@H](O)CC3)on2)n1 :: 14
NC(=O)c1cccc(-c2cc(-c3ccc(NCC(=O)N4CCS(=O)(=O)CC4)nc3O[C@H]3CC[C@@H](O)CC3)on2)n1 :: 489
CNc1ccc(-c2cc(-c3cccc(C(N)=O)n3)no2)c(O[C@H]2CC[C@@H](O)CC2)n1 :: 1840
CN(C)C(=O)CNc1ccc(-c2cc(-c3cccc(C(N)=O)n3)no2)c(O[C@H]2CC[C@@H](O)CC2)n1 :: 1210

P = CN1Cc2cc(-c3cc(-c4cccc(C(N)=O)c4)no3)c(O[C@H]3CC[C@@H](O)CC3)cc2C1=O
Q = NC(=O)c1cccc(-c2cc(-c3ccc(N)nc3O[C@H]3CC[C@@H](O)CC3)on2)n1
Q. Input pair: P , Q . Output: entry with lower concentration at 168 h. Choose, then provide that item's label.
A. Q
(Q: 120 nM, P: 9810 nM)
